B1: TPR 5TU (parent)
chain: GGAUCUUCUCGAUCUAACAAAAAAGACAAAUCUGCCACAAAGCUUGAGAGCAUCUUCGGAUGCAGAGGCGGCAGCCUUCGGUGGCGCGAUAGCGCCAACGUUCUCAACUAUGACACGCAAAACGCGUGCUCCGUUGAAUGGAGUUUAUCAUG

Variants of: B1
Experiment: polymerase ribozyme fitness, log enrichment relative to wild type (log ratio); higher = more active; in vitro selection for triplet polymerase activity
Fewer inactive variants are shown than the library holds.
Where polymerase ribozyme fitness (log ratio) equals or exceeds -3, the correct label is 1.0; where it does not, the label is 0.0.

| mutations | classification |
| --- | --- |
| A40U U61A C79A U104G | 0.0 |
| C8G G92C | 0.0 |
| G70A A110G A142G | 0.0 |
| A24U A52G | 1.0 |
| C5G A39G G88A C131G | 0.0 |
| G50C C87U C123A C125G | 0.0 |
| U31A C35G A66C G68U | 0.0 |
| A12G G84A G143A A147G | 0.0 |
| A3C U44G U56A G84C | 0.0 |
| A12U A41U G65C G70C C79U | 0.0 |
| A21U U61G G80A U101A | 1.0 |
| A28U U44G U82G C87U C114U G133A U146G | 0.0 |
| U45C G80C C85U C87G G92A U144G | 0.0 |
| G124A U148C | 1.0 |
| C10A C79A A97G A150G | 0.0 |
| C5G A29C A47C G50A G86A U90A A91U G143C | 0.0 |
| A37U A121G G152U | 0.0 |
| C57U C87G | 0.0 |
| C95G A97C | 1.0 |
| A24G U53A U61A G84C C125U | 0.0 |
| C14G G133U | 0.0 |
| U15A G48C G83U | 1.0 |
| C14G A20U C76A | 0.0 |
| G59U C69G G88C C125A | 0.0 |
| C36A A98U A113U C118U U148A | 0.0 |
| A3U C76G A89U C93U G100A A137C G143U U144A | 0.0 |
| G70C C96U G100A C118G A120C | 0.0 |
| U44C G59A A91U | 0.0 |
| U13G G84A G143U | 0.0 |
| U53G C57G G70C C79G A89U A91U C93U | 0.0 |
| A47G U90A C95A A98G A138U A147C | 0.0 |
| A22U A23G G50C G74C | 0.0 |
| G71C G83U G141A A147C C149A | 0.0 |
| U15G A73U C93U A120G | 1.0 |
| C38A C63A C95U A106G | 1.0 |
| U15C A122U | 1.0 |
| G50U C95U C118A G140A | 0.0 |
| A37U | 1.0 |
| C51G C85U U144G | 1.0 |
| A39G G59C G71A U101C A115G G140U | 0.0 |
| G70C A142C | 0.0 |
| A41C C96A | 1.0 |
| C43U U55G A60U U109A U145C U146C | 0.0 |
| A49G A52C C95U C96A C99A | 0.0 |
| C32U U53A A91C G94A C105G A121U U151C | 0.0 |
| G94A A119U | 1.0 |
